Origin of measurements: a melting point compilation (Tetko et al.; mined from patent text by program, amines drawn as free bases though some values may be those of a salt)

quantityKind: melting point

Use these answered entries as a reference point.
>>> df
                                   compound   quantitykind            val
0  COc1ccc(-c2cc3ccccc3[nH]2)cc1NCc1ccc([N+](=O)[O-])cc1  melting point  198 to 199 °C
1  CCCCCCCCCCCCCCCCCC(=O)OCCOc1ccc(C2C(=O)Oc3c2cc(C(C)(C)C)cc3C(C)(C)C)cc1 (stereo unspecified)  melting point    54 to 60 °C
2  CN(c1cccc2cc(-c3ncc(COCC(=O)O)s3)[nH]c12)S(=O)(=O)c1cccs1  melting point  197 to 198 °C
3  CC1(C(O)(C=Cc2ccc(Cl)cc2)Cn2cncn2)CC1(F)F (stereo unspecified)  melting point         131 °C
4  O=C(Nc1ccc2cc(CN3CCCC3)cnc2c1)c1ccc(-c2ccc(Cl)cc2)nc1  melting point  223 to 225 °C

Give the measured melting point of Cc1cc(=O)c2ccc(N)cc2s1 .
165 to 169 °C

Give the measured melting point of Cc1cc2nc3c4cc(Br)ccc4n(CCN(C)C)c3nc2cc1C .
146 to 147 °C

Give the measured melting point of O=C(O)c1nccnc1C(=O)Nc1ccc(Cl)cn1 .
222 °C

Give the measured melting point of CC[C@H](C)[C@H](NC(=O)[C@H](C)N(C(C)=O)C1CCCCC1)C(=O)N[C@@H](Cc1ccc2ccccc2c1)[C@@H](O)[C@@H](O)CC(C)C .
192 to 194 °C

Give the measured melting point of OC1c2ccccc2-c2[nH]nc(-c3ccccc3)c21 (stereo unspecified) .
269 to 272 °C

Give the measured melting point of CCCCc1c(C(=O)N(C)Cc2ccc3c(Br)c(OCc4nnn[nH]4)ccc3c2)oc2ccccc12 .
180 to 183 °C

Give the measured melting point of CCSc1cc(C)nc(SCC)c1NC(=O)CN1CCN(CCSc2nc3c(C)c(Cl)cc(C(C)C)c3o2)CC1 .
120 to 122 °C

Give the measured melting point of CCn1cc(C(=O)O)c(=O)c2cc(F)c(N3CCC4CCC(C3)N4)cc21 (stereo unspecified) .
147 to 150 °C

Give the measured melting point of Cc1cc2c3c(cc(C)c2[nH]c1=O)CC(C)(CBr)O3 (stereo unspecified) .
257 to 259 °C

Give the measured melting point of CN(C)c1ccc(C(=O)N2CCC(c3[nH]nc4c3C(=O)c3c(NC(=O)NN5CCOCC5)cccc3-4)CC2)cc1 .
189 to 191 °C

Give the measured melting point of COc1cc(Nc2c(C#N)cnc3cc(-c4ccc(CO)cc4)ccc23)c(Cl)cc1Cl .
264 to 267 °C

Give the measured melting point of C[Si](C)(C)C#Cc1ccc(-n2c(-c3ccccc3)ccc2-c2ccccc2)cc1 .
183 to 184 °C

Give the measured melting point of O=C(O)Cc1cccc(NC(=O)NCC(=O)N2[C@@H](c3ccccc3O)CC[C@H]2c2ccccc2)c1 (racemic) .
165 °C

Give the measured melting point of COc1ccc(C=C(C#N)C(N)=O)c([N+](=O)[O-])c1OC .
194 to 195 °C

Give the measured melting point of CCOc1ccc2cccnc2c1[N+](=O)[O-] .
161 to 164 °C

Give the measured melting point of COc1ccc(C2=CC(=O)CC2)cc1OC1CCCC1 .
136 to 137 °C
